Assay: CaCo-2 permeability (bi-directional)
Settings: human, Caco-2, pH 7.4, Papp B2A Replicate 1, HBSS/HBSS; pH 7.4/7.4
Experimental: Caco-2 cells obtained from the ATCC were used between passage numbers 40—60. Cells were seeded onto Millipore Multiscreen Transwell plates at 1 × 10^5 cells/cm^2. The cells were cultured in DMEM and media was changed every two or three days. […] Compound permeability was assessed in duplicate. […] Test and control compounds were quantified by LC–MS/MS cassette analysis using a 7-point calibration with appropriate dilution of the samples. […] Efflux ratio (ER) was calculated from mean A-B and B-A data. […]
Where Papp B→A at 120 min, 10 μM equals or exceeds 10 ×10⁻⁶ cm/s, the correct label is 1 (yes); where it does not, the label is 0 (no).

These recorded examples may help you get a feel for the data.
Compound: Oc1cc(Cl)cc2c1NC(c1ccc(Cl)cc1)C1CC=CC21 (stereo not shown)
Class: 0 (no)

Compound: N#Cc1c(Cl)cc(O)c2c1C1C=CCC1C(c1ccc(Cl)cc1)N2 (stereo not shown)
Class: 0 (no)

Compound: Cc1[nH]nc(-c2ccc(O)c(C)c2O)c1-c1nc2ccccc2s1
Class: 1 (yes)

Compound: COc1ncc(C(C)NC2CC(C)(C)NC(C)(C)C2)cc1Cl (stereo not shown)
Class: 1 (yes)

Compound: O=[N+]([O-])c1c(Cl)cc(O)c2c1C1C=CCC1C(c1ccc(Cl)cc1Cl)N2 (stereo not shown)
Class: 0 (no)

Compound: CC(C)C[C@@H](CO)NCc1cc(O)c2cc(F)ccc2n1
Class: 1 (yes)

Compound: CC1(C)Cc2cccc(OCC(=O)Nc3nc4ccccc4s3)c2O1
Class: 0 (no)

Compound: O=C(O)c1c(Cl)cc(O)c2c1C1C=CCC1C(c1ccc(Cl)cc1)N2 (stereo not shown)
Class: 0 (no)

Request: Confirm if Papp B→A at 120 min, 10 μM reported for the compound Oc1cc(Cl)cc2c1NC(c1ccccc1)C1CC=CC21 (stereo not shown) is 10 ×10⁻⁶ cm/s or above.
Response: 1 (yes)

Request: For O=[N+]([O-])c1c(Cl)cc(O)c2c1C1C=CCC1C(c1ccc(Cl)cc1)N2 (stereo not shown) then?
Response: 0 (no)

====

Experiment: In vivo bioavailability / PK after 1 mg/kg IV or 10 mg/kg PO
Design: species or system Male ICR mice
Conditions: male, ICR, mouse, plasma, iv, 1 mg/kg, mg/kg IV, time 1 h, mouse#1-3; read-out: in vivo PK raw, level per mouse
Property name: concentration at 1 h
Please answer using a numeric value trailed by its unit.

Request: concentration at 1 h for Cc1[nH]nc(-c2ccc(O)c(C)c2O)c1-c1nc2ccccc2s1 ?
Response: 29.6 nM

====

Test: Semi-thermodynamic solubility
Type: physicochemical
Conditions: PBS, aqueous buffer, thermodynamic from solid, Room Temp; Overnight; LC-MSMS; read-out: Solubility Replicate 3
Property name: solubility (µM)
Record the value in µM, omitting the unit from your answer.

Would you please look over these solved cases?
Compound: CC1(C)Cc2cccc(OCC(=O)Nc3nc4ccccc4s3)c2O1
Property name: solubility
Result number: 1.21
//
Compound: COC(=O)C1=C(C)NC(C)=C(C(=O)OCCN(C)Cc2ccccc2)C1c1cccc([N+](=O)[O-])c1 (centres unmarked) [nicardipine, reference compound]
Property name: solubility
Result number: 29.6

Consider the additional compound presented here.
Request: Using the record for Oc1cc(Cl)cc2c1NC(c1ccccc1)C1CC=CC21 (centres unmarked) , report its solubility.
Response: 2.79

meta.source: paper PMC10060354
